test: qHTS assay to identify small molecule inhibitors of chordoma cells - UCH-2 (AID 1259356); details: UCH-2 chordoma viability, CellTiter-Glo ATP luminescence, 48 h; series mostly up to 46.1 µM; also: % is scaled to controls: 0 for no effect and ±100 for the full control effect
Inconclusive results are not listed. Calls of active or inactive are those of the source. Calls follow the shape of the dose curve; as a rule, active = well fitted cell-killing curve with a large enough effect; inconclusive = small, poorly fitted or top-dose-only effect; inactive = flat fitted curve, though single readings scatter.

Smiles Data	outcome
O=P(O)(O)C(O)(Cc1cccnc1)P(=O)(O)O	inactive
NC(=O)c1cccnc1	inactive
O=S(=O)(c1cccc2cnccc12)N1CCCNCC1	inactive

---

assay: Cellular Toxicity (caspase-3) H-4-II-E (AID 663); conditions: H-4-II-E rat hepatoma, scaled: DMSO 0%, 100 µM tamoxifen 100%; at 92.2 µM (top of the series);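 also: cells exposed to compound for 16 hr before readout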
Results filed as inconclusive are left out.

Smiles Data	caspase-3 activation / %
N=C(N)c1ccc(OCCCCCOc2ccc(C(=N)N)cc2)cc1	1.46
Cc1ccnc2c1NC(=O)c1cccnc1N2C1CC1	0.892
CCc1cc(C(N)=S)ccn1	-1.43
Cc1nnc(NS(=O)(=O)c2ccc(N)cc2)s1	-0.129

---

assay: qHTS Screen of the MIPE 4.0 Collection Against Ewings Sarcoma (RDES) (AID 1259252); details: RD-ES Ewing sarcoma viability, CellTiter-Glo, 48 h; series mostly up to 45.8 µM; also: nearly all actives have a fitted effect of over 35% in size
Results filed as inconclusive are left out. The source made the active and inactive calls. Calls come from the whole dose curve; as a rule, active = well fitted inhibition curve with a large enough effect; inconclusive = small, poorly fitted or top-dose-only effect; inactive = no such curve, though single readings can be large or run the other way.
Classes used: active, inactive

Molecule	Label Class
CC(C)OC(=O)C(C(=O)OC(C)C)=C1SC=CS1	inactive
CN1CCN(c2c(F)cc3c(=O)c(C(=O)O)cn(CCF)c3c2F)CC1	inactive
OCc1ccc(-c2nn(Cc3ccccc3)c3ccccc23)o1	active
CC(C)NCC(O)c1ccc(NS(C)(=O)=O)cc1 (centres undefined)	active
Cc1cccc(N(C)C(=S)Oc2ccc3ccccc3c2)c1	inactive
S=P(N1CC1)(N1CC1)N1CC1	active
CCCCc1oc2ccc(NS(C)(=O)=O)cc2c1C(=O)c1ccc(OCCCN(CCCC)CCCC)cc1	active
O=C(NCC1CN(c2ccc(N3CCOCC3=O)cc2)C(=O)O1)c1ccc(Cl)s1 (centres undefined)	inactive
CC(=O)[C@H]1CC[C@H]2[C@@H]3CCC4=CC(=O)CC[C@]4(C)[C@H]3CC[C@]12C	active
COc1cnc(NS(=O)(=O)c2ccc(N)cc2)nc1	inactive
CCN(CC)CC#CCOC(=O)C(O)(c1ccccc1)C1CCCCC1 (centres undefined)	inactive
Nc1nc(=S)c2[nH]cnc2[nH]1	active
COc1cc([C@@H]2c3cc4c(cc3[C@H](O)[C@H]3COC(=O)[C@H]23)OCO4)cc(OC)c1OC	inactive
Cn1c(=O)c2c(ncn2CC(O)CO)n(C)c1=O (centres undefined)	inactive
NNC(=O)c1ccncc1	inactive
COC(=O)Nc1nc2ccc(Sc3ccccc3)cc2[nH]1	active
CCN(CC)CCn1c(=O)c(Cc2ccc(OC)cc2)nc2ccccc21	inactive
CC(C)OC(=O)OCOP(=O)(CO[C@H](C)Cn1cnc2c(N)ncnc21)OCOC(=O)OC(C)C	inactive
CCn1cc(C(=O)O)c(=O)c2cc(F)c(N3CCNCC3)nc21	inactive
CC(N)C12CC3CC(CC(C3)C1)C2 (centres undefined)	inactive
CCOC(=O)c1ccc(OC(=O)CCCCCN=C(N)N)cc1	inactive
CNCC[C@H](Oc1cccc2ccccc12)c1cccs1	active
CCN1CCCC1CNC(=O)c1cc(S(N)(=O)=O)ccc1OC (centres undefined)	inactive
CN1CCCC(n2nc(Cc3ccc(Cl)cc3)c3ccccc3c2=O)CC1 (centres undefined)	active
